# Target system: human GYS1 (glycogen synthase) (Homo sapiens)
# Sequence (P13807 whole entry): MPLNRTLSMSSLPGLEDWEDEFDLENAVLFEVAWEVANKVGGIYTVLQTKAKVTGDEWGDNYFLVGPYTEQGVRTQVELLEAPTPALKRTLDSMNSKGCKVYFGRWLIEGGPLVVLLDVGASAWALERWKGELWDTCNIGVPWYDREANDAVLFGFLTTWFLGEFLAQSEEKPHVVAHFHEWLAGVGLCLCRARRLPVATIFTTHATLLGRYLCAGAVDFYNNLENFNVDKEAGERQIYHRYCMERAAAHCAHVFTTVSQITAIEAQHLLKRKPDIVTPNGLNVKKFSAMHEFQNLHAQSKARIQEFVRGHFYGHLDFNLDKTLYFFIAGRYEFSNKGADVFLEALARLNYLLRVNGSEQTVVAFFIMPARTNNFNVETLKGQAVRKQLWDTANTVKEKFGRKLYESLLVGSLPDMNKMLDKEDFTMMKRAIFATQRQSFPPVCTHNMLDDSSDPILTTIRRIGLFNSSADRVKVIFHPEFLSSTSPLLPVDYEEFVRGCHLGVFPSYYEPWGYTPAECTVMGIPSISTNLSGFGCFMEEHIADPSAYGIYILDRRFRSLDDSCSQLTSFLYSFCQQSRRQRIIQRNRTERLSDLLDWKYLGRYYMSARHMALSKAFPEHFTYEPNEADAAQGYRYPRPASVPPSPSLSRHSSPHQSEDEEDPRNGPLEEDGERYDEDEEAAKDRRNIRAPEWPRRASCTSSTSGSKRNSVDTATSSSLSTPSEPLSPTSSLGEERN
# Assay procedure: Measurement of glycogen synthase activity
# Run parameters: concentration causing 50% increase in relative activity; 100% = compound of Example 1 of WO/2011/058154 at 10 μM; 10 mM Glucose-6-phosphate; 37° C. for 25 minutes (Examples 1 to 61 and 67 to 82) or 20 minutes (Examples 62 to 66); absorbance at 340 nm
Structures can show the parent of a compound that is named as a salt.
Measured parameter: EC50 (µM)

# annotated cases, reported EC50 shown
Compound: CSc1cc(F)c(F)cc1-c1ccc(OCc2cccc(C(=O)N(CC(=O)O)Cc3cscn3)c2)cc1
Target system: human GYS1 (glycogen synthase) (Homo sapiens)
Recorded number: 0.017
--
Compound: CSc1cc(F)c(F)cc1-c1ccc(OCc2cccc(C(=O)N(CC(=O)O)[C@@H](C)C(N)=O)c2)cc1
Target system: human GYS1 (glycogen synthase) (Homo sapiens)
Recorded number: 0.013

A: CNCCN(CC(=O)O)C(=O)c1cccc(COc2ccc(-c3cc(F)c(F)cc3SC)cc2)c1 [Example 28, Trifluoroacetate]
B: COC(C)(C)CN(CC(=O)O)C(=O)c1cccc(COc2ccc(-c3cc(F)c(F)cc3SC)cc2)c1
Problem: In terms of reported EC50, does A or B have the smaller number? Please indicate the selected item by its label.
Solution: A
